TEST TARGET: T1, Peptide-35 (cysteine pairing not given here; also: biotinylated, site not given here)
T1 peptide: EDFCYWYQWPICSD
ASSAY NOTES: ELISA, Fab on captured biotin-peptide
Where no end group is shown, it is not given here.
MEASURED ENDPOINT: EC50 (nM)
Please reply with the bare figure in nM and do not write the unit itself.

Some binders with recorded EC50:
TBD-6 (LC I93A) (Fab, V domains shown, Fab; also called LC I93A mutant) VH: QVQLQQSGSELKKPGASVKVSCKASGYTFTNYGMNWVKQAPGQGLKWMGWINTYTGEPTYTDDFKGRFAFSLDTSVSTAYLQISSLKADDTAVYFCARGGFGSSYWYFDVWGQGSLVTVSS VL: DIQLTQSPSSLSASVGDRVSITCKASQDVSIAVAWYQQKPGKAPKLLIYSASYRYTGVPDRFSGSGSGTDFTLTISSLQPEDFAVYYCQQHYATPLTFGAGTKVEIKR
131
TBD-1 wt (Fab, V domains shown, Fab; the heavy chain entry is VH-CH1; also called wild-type anti-TROP2 Fab (hRS7); TROP2 Fab) VH: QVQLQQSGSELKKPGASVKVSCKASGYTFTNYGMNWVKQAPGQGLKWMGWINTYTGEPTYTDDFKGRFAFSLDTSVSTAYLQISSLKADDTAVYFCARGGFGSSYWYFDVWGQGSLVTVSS VL: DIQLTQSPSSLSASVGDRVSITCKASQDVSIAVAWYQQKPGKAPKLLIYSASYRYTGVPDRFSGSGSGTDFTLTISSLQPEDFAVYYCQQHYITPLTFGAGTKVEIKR
261
TBD-22 (HC D109A) (Fab, V domains shown, Fab; also called HC D109A mutant) VH: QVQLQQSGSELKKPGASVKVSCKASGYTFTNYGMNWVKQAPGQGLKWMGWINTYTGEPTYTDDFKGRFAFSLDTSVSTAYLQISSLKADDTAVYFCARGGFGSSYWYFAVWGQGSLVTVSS VL: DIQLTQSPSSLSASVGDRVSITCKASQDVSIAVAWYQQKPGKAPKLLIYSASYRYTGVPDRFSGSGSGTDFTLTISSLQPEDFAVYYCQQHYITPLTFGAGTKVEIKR
7.7

# evaluate next
Can you look up the measured EC50 of TBD-21 (HC F108A) (Fab, V domains shown, Fab; also called HC F108A mutant) VH: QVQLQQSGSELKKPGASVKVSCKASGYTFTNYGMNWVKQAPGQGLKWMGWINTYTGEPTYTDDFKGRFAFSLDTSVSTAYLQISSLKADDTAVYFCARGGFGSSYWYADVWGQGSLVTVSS VL: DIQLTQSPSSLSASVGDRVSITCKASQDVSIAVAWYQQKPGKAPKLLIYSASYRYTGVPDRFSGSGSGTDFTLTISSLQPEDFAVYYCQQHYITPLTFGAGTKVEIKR for me?
331
